Hey, just so you know, these numbers are from PubChem BioAssay AID1159580.

Test: chemical genetic growth profiling, strain panel (AID 1159580);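 further: tested at 20 µM; growth read once vehicle control cultures reached saturation at 30 °C; lower values mean less growth of the strain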
Details: S. cerevisiae deletion strains, growth OD, locus YBR021W, strain FUR4, hits give low values
In all, about 5,500 compounds went through this assay and about 2,000 (36%) were called active. Another 18% or so got no clear call; they are omitted. This is one part of the list.
Criterion: normalized growth strictly under 1. Met: true. Not met: false.

Prompt: Please determine if `NC(N)=O` is below 1 in terms of normalized growth.
Response: true

Prompt: Please determine if `Cc1cc(O)c(C)c2c1C(=O)Oc1c(C)c(O)c(C(=O)O)c(C)c1O2` is below 1 in terms of normalized growth.
Response: true

Prompt: Please determine if `CCCCC[C@H](CC(=O)NO)C(=O)N[C@H](C(=O)N1CCC[C@H]1CO)C(C)C` is below 1 in terms of normalized growth.
Response: false

Prompt: Please determine if `Cc1cc(O)c(C=O)c2c1C(=O)Oc1c(COC(=O)/C=C/C(=O)O)c(O)c(C(=O)O)c(C)c1O2` is below 1 in terms of normalized growth.
Response: false

Prompt: Please determine if Cc1cc(O)c(C=O)c2c1C(=O)Oc1c(C)c(O)c3c(c1O2)C(O)OC3=O (stereo not drawn) is below 1 in terms of normalized growth.
Response: false
